assay: MRT in ICR mouse at 2 mg/kg, ip measured upto 24 hrs by LC-MS/MS analysis; type: ADME, organism-based; details: in vivo
PROPERTY_LABEL: MRT (min)
One number for each entry, in min.

query: What does the data say about its MRT? Entry: `C=CC(=O)N(C)c1nc(NC2CCN(C)CC2)c2cc(OC)c(OCCCN3CCCC3)cc2n1`
result: 36.6

* * *

assay: AUC (0 to infinity) in ICR mouse at 2 mg/kg, ip measured upto 24 hrs by LC-MS/MS analysis; format: ADME, organism-based; set-up: dose 2 mg/kg, time < 24 hrs, route ip; conditions: in vivo
PROPERTY_LABEL: AUC(0-inf) (ng·h/mL)
One number for each entry, in ng·h/mL.

query: What does the data say about its AUC(0-inf)? Entry: `C=CC(=O)N(C)c1nc(NC2CCN(C)CC2)c2cc(OC)c(OCCCN3CCCC3)cc2n1`
result: 214

* * *

target: Histone-lysine N-methyltransferase EHMT1 (Homo sapiens); test: Inhibition of GLP (unknown origin) by AlphaLISA assay
Sequence (Q9H9B1 whole entry): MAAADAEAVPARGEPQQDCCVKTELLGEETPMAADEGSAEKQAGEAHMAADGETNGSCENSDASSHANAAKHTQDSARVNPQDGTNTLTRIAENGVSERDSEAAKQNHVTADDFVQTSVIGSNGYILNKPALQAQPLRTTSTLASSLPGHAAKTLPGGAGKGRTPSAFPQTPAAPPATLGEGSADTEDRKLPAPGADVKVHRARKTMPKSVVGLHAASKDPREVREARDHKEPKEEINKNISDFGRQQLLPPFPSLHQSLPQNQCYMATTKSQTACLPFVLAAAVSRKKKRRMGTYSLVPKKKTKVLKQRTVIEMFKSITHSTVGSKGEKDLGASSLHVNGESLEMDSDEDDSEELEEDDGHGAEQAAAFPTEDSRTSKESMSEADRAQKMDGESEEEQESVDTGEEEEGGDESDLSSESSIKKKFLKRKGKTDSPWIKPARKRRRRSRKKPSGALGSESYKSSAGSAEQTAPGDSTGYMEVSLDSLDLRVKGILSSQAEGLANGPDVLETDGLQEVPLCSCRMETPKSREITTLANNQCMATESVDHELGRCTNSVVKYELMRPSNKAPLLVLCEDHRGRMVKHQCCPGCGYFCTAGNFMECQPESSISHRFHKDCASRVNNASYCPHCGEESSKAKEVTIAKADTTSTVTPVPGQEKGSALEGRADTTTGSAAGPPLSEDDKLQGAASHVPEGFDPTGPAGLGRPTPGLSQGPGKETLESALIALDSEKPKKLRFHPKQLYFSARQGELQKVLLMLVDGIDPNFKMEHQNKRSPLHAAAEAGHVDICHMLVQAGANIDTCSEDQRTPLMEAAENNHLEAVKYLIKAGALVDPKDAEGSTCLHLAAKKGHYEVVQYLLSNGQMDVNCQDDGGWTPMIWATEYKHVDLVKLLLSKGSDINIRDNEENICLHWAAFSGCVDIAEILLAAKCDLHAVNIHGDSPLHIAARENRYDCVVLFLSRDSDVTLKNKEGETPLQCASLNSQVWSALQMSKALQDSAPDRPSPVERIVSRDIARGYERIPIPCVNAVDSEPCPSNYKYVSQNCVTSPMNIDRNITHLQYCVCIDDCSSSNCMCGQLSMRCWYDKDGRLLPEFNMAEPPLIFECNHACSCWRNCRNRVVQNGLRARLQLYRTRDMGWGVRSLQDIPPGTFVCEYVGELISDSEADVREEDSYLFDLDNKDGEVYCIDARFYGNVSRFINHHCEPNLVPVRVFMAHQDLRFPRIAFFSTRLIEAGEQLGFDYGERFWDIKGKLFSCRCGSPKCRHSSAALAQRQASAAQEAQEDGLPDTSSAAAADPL
PROPERTY_LABEL: IC50

query: Form entry - test system: Histone-lysine N-methyltransferase EHMT1 (Homo sapiens); read-out: IC50; compound: `C=CC(=O)N(C)c1nc(NC2CCN(C)CC2)c2cc(OC)c(OCCCN3CCCC3)cc2n1`
result: 5 nM

* * *

target: Protein arginine N-methyltransferase 5 (Homo sapiens, UniProt O14744)
Sequence (O14744 whole entry): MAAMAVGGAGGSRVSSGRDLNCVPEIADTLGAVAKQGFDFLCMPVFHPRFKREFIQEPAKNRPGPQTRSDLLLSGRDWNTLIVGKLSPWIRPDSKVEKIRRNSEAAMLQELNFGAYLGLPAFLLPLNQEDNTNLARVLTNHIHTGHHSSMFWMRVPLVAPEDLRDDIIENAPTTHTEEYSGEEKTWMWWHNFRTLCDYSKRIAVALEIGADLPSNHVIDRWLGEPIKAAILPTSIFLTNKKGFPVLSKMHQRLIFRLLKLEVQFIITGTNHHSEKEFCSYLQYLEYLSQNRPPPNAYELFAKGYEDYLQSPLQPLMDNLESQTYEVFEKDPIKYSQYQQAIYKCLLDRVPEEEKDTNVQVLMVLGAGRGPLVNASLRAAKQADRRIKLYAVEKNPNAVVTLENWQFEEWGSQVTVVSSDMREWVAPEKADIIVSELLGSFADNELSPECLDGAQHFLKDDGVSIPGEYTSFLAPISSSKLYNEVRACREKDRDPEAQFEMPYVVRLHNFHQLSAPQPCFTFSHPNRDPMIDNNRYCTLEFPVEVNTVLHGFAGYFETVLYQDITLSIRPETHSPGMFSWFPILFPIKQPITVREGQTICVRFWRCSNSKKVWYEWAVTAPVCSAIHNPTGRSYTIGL
PROPERTY_LABEL: IC50

query: What does the data say about its IC50? Entry: `C=CC(=O)N(C)c1nc(NC2CCN(C)CC2)c2cc(OC)c(OCCCN3CCCC3)cc2n1`
result: > 20 µM

* * *

experiment: Cmax in ICR mouse at 2 mg/kg, ip measured upto 24 hrs by LC-MS/MS analysis; format: ADME, organism-based; set-up: time < 24 hrs, dose 2 mg/kg, route ip; settings: in vivo
PROPERTY_LABEL: Cmax
I'd appreciate it if you wrote the number followed by its unit.

query: What does the data say about its Cmax? Entry: `C=CC(=O)N(C)c1nc(NC2CCN(C)CC2)c2cc(OC)c(OCCCN3CCCC3)cc2n1`
result: 316 ng/mL

* * *

target: DNA (cytosine-5)-methyltransferase 1 (Homo sapiens, UniProt P26358)
Sequence (P26358 whole entry): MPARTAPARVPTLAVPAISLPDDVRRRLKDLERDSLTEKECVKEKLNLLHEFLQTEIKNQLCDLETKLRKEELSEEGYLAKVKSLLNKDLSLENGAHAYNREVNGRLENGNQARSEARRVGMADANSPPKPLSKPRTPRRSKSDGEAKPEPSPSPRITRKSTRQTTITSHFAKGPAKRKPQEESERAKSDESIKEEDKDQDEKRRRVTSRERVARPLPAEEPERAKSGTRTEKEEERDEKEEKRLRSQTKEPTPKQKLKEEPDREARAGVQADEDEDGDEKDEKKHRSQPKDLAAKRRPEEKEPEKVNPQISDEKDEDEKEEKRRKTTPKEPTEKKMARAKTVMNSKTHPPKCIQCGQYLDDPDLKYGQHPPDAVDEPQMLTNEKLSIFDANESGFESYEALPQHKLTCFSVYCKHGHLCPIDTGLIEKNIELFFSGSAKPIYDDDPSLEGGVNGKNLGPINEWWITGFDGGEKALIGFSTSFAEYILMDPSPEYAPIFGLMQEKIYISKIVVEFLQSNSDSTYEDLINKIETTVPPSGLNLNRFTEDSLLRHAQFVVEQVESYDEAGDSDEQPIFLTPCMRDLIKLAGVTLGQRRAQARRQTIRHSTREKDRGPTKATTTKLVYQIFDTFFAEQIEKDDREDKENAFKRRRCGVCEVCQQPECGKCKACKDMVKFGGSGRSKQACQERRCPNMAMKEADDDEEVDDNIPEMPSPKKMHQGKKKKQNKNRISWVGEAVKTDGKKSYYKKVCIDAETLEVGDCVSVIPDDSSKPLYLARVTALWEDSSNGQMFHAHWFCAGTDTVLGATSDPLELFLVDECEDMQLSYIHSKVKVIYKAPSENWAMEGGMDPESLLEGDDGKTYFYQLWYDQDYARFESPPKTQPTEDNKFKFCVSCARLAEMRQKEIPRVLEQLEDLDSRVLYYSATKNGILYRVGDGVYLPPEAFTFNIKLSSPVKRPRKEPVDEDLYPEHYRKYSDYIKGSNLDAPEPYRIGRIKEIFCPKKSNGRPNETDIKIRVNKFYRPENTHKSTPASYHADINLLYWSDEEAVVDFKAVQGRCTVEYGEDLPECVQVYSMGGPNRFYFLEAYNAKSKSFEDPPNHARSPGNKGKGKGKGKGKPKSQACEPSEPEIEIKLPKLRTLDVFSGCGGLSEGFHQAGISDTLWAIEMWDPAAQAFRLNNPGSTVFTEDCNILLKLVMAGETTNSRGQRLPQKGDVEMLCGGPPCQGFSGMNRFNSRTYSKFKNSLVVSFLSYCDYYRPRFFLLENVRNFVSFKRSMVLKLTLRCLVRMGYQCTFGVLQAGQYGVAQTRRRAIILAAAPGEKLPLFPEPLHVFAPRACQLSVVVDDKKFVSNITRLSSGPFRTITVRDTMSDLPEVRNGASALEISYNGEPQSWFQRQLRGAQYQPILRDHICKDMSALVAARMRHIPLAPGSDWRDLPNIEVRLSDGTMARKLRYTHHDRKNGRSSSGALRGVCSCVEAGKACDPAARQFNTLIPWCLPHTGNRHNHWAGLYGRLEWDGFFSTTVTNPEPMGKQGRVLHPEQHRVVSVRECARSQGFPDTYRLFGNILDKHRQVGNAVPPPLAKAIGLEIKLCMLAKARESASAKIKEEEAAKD
PROPERTY_LABEL: IC50

query: Form entry - test system: DNA (cytosine-5)-methyltransferase 1 (Homo sapiens, UniProt P26358); read-out: IC50; molecule: `C=CC(=O)N(C)c1nc(NC2CCN(C)CC2)c2cc(OC)c(OCCCN3CCCC3)cc2n1`
result: > 20 µM

* * *

target: Histone-lysine N-methyltransferase EHMT2 (Homo sapiens, UniProt Q96KQ7); experiment: Inhibition of human recombinant G9a using H3-SAM as substrate
Sequence (Q96KQ7 whole entry): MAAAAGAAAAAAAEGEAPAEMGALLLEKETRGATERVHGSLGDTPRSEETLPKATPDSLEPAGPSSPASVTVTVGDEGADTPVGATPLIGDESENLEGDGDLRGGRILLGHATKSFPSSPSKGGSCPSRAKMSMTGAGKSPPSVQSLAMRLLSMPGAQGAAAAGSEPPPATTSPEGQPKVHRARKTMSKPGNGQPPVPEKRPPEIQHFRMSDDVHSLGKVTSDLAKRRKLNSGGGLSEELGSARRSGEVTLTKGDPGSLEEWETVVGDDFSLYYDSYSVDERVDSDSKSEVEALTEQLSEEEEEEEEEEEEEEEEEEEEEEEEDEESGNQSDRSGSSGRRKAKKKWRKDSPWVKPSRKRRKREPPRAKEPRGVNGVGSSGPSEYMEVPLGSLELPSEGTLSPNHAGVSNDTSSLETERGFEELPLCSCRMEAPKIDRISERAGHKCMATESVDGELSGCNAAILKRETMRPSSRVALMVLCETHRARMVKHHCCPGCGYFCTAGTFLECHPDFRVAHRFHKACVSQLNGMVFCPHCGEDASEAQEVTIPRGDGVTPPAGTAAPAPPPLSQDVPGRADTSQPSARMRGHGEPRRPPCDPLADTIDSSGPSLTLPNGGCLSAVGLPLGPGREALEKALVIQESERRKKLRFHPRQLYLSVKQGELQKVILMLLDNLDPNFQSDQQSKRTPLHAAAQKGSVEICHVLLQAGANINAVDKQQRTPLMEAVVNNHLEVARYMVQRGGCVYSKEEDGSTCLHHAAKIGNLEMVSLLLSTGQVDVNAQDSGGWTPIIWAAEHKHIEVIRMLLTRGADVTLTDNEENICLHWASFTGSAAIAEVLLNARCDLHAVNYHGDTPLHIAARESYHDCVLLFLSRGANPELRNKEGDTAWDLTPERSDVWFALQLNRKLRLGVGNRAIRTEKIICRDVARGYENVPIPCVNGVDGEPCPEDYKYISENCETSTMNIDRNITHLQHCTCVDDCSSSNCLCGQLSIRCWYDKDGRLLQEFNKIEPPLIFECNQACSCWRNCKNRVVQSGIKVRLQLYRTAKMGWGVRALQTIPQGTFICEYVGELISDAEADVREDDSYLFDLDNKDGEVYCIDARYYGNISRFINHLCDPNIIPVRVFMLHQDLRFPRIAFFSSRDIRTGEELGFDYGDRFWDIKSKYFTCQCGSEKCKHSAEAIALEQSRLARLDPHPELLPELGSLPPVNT
pIC50: −log10 of the molar value.
PROPERTY_LABEL: pIC50

query: Form entry - test system: Histone-lysine N-methyltransferase EHMT2 (Homo sapiens, UniProt Q96KQ7); read-out: pIC50; compound: `CNc1nc2cc(OCCCN3CCCC3)c(OC)cc2n1C(C)C`
result: > 7.00

* * *

test: AUC (0 to t) in ICR mouse at 2 mg/kg, ip measured upto 24 hrs by LC-MS/MS analysis; format: ADME, organism-based; parameters: dose 2 mg/kg, time < 24 hrs, route ip; settings: in vivo
PROPERTY_LABEL: AUC(0-t) at 24 h (ng·h/mL)
Numbers only, in ng·h/mL.

query: What does the data say about its AUC(0-t) at 24 h? Entry: `C=CC(=O)N(C)c1nc(NC2CCN(C)CC2)c2cc(OC)c(OCCCN3CCCC3)cc2n1`
result: 208
